Exercise: for every item that follows, state its recorded growth inhibition.
assay: NCI Yeast Anticancer Drug Screen. Data for the rad50 strain (AID 155);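 note: 0% = growth of vehicle-only cultures of the same strain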; conditions: S. cerevisiae rad50 strain growth inhibition; at 50.0 µM; stronger effect = higher value
This is part of a sample that, as a whole, favours compounds with a hit. Of some 79,000 tested, about 15% had one in any assay.
Number only, in %; omit the unit.

Query :: Look up growth inhibition for this compound: `O=C1OC(/C=C/c2ccccc2)=NC/1=C\c1ccc(Cl)cc1`
Result :: 23.4

Query :: Look up growth inhibition for this compound: O=c1ccn(C2OC(CF)C(O)C2O)c(=O)[nH]1 (stereo not given)
Result :: 1.8

Query :: Look up growth inhibition for this compound: Oc1ccccc1C1N=NC2=C(CCCC2)N1O (stereo not given)
Result :: -12.9

Query :: Look up growth inhibition for this compound: `O=C1CCCN(Cc2ccccc2)C1`
Result :: -4.2

Query :: Look up growth inhibition for this compound: `C=C1C(=O)O[C@@H]2/C=C(\C)CC/C=C(/COC(C)=O)C[C@@H](OC(C)=O)[C@@H]12`
Result :: 7.4

Query :: Look up growth inhibition for this compound: COc1ccc(-c2c3c(n(C4OC(COC(C)=O)C(OC(C)=O)C(OC(C)=O)C4OC(C)=O)c(=S)c2C#N)CC(C)(C)CC3=O)cc1 (stereo not given)
Result :: -2.05

Query :: Look up growth inhibition for this compound: `CCOc1ccc(-c2nc(-c3oc4ccccc4c(=O)c3OC(C)=O)cs2)cc1`
Result :: -5.25

Query :: Look up growth inhibition for this compound: `COCCOC(=O)c1ccc(C(N)=NC2CCCCC2)cc1`
Result :: -1.2

Query :: Look up growth inhibition for this compound: `O=C(/C=C/c1ccc2c(c1)OCO2)NCc1ccco1`
Result :: 53.5

Query :: Look up growth inhibition for this compound: `Nc1nc(C=O)c(CCc2ccccc2)c(=O)[nH]1`
Result :: 6.8

Query :: Look up growth inhibition for this compound: `O=[N+]([O-])c1cccc(-c2csc(N=Nc3c(O)[nH]c4ccccc34)n2)c1`
Result :: -29.6

Query :: Look up growth inhibition for this compound: `O=C(COc1ccccc1[N+](=O)[O-])Nc1cccnc1`
Result :: -18.9

Query :: Look up growth inhibition for this compound: CN1C(=O)C23CCCN2C(=O)C1(C)SC(=N)S3 (stereo not given)
Result :: 2.35

Query :: Look up growth inhibition for this compound: `COc1ccc(C(=O)Nc2ccccc2C#N)cc1`
Result :: -0.15

Query :: Look up growth inhibition for this compound: `CC(C)(C)OC(=O)N(CCCN)CCCCN(CCCN)C(=O)OC(C)(C)C`
Result :: 8.45

Query :: Look up growth inhibition for this compound: `CCOc1ccc(C2=NNC(=O)CC2)cc1`
Result :: 26

Query :: Look up growth inhibition for this compound: `NC(=O)CC1CCCCC1`
Result :: 8.3

Query :: Look up growth inhibition for this compound: `Cc1cc2c(cc1C)C(=O)c1ccccc1C2=O`
Result :: -29.3

Query :: Look up growth inhibition for this compound: `N/N=C(\Cc1ccccc1)NN=C(N)N`
Result :: 13.6

Query :: Look up growth inhibition for this compound: `Cn1c(=O)c2[nH]c([N+](=O)[O-])nc2n(C)c1=O`
Result :: 23.4

###

Assay: NCI Yeast Anticancer Drug Screen. Data for the rad50 strain (AID 155);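 note: 0% = growth of vehicle-only cultures of the same strain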
Details: S. cerevisiae rad50 strain growth inhibition; at 50.0 µM; stronger effect = higher value
Protocol: Growth inhibition of yeast strains with defined genetic alterations is measured as a screen for potential anti-cancer activity. Selected strains with alterations in DNA damage repair or cell cycle control were exposed to compounds and growth inhibition was measured relative to vehicle treated controls. The strain used in this assay is rad50
About 79,000 compounds went through this panel and 15% of them were active in at least one assay; those are over-represented in the sample as a whole.
Exercise: for every item that follows, state its recorded growth inhibition.
Number only, in %; omit the unit.

Query :: Look up growth inhibition for this molecule: `CCCCSCCO`
Result :: -0.65

Query :: Look up growth inhibition for this molecule: NC(=O)CNCC1Cc2ccccc21 (stereo not drawn)
Result :: 21.8

Query :: Look up growth inhibition for this molecule: `CCN(CC)C(=S)SCCCS(=O)(=O)O`
Result :: 17.7
